Kindly supply the reported Ratio AUC values for the records listed here.
biological target: Sodium channel protein type 1 subunit alpha (Homo sapiens) (UniProt P35498); test: Activation of human Nav1.1 expressed in HEK293 cells assessed as ratio of compound activation AUC to baseline activation AUC at 0.12 uM at -120 mV holding potential by Qpatch assay; assay type: cell-based
Residues, ends and D or L forms follow the SMILES beside them.
Would you mind answering with just the numeric figure?

# input Record request: Ratio AUC value, item CC[C@H](C)[C@H](NC(=O)[C@H](CCCCN)NC(=O)[C@@H](NC(=O)[C@@H](N)CCCNC(=N)N)[C@@H](C)CC)C(=O)N[C@H](C)C(=O)N[C@@H](CC(C)C)C(=O)N[C@@H](Cc1ccccc1)C(=O)N[C@@H](CC(=O)O)C(=O)N[C@@H](CCC(N)=O)C(=O)N[C@@H](CC(C)C)C(=O)N[C@@H](CO)C(=O)N[C@@H](CCCNC(=N)N)C(=O)N[C@@H](CC(C)C)C(N)=O
# output 0.1

# input Look up Ratio AUC: CC[C@H](C)[C@H](NC(=O)[C@H](CCCCN)NC(=O)[C@@H](NC(=O)[C@@H](N)CC(=O)O)[C@@H](C)CC)C(=O)NCC(=O)N[C@@H](CC(C)C)C(=O)N[C@@H](Cc1ccccc1)C(=O)N[C@@H](CCCNC(=N)N)C(=O)N[C@@H](CCC(N)=O)C(=O)N[C@@H](CC(C)C)C(=O)N[C@@H](CO)C(=O)N[C@@H](CCCNC(=N)N)C(=O)N[C@@H](CC(C)C)C(N)=O (H-DIKIGLFRQLSRL-NH2)
# output 1
